test system: SN12C; test: NCI tumour cell line growth inhibition, 48 h
Where a name gives a salt, the structure may show the parent alone. Active and inactive are the calls of the source. No stated cut-off is given here; in the data, active = GI50 up to about 1.1 µM and inactive = higher.
Hello, when you answer, please use one of the following outcomes: active, inactive

Q) What is the recorded call for this compound in the test? `Cc1ccccc1C(=O)Oc1ccc(Oc2ccccc2)cc1`
A) inactive

Q) What is the recorded call for this compound in the test? `CN(C)CCNS(=O)(=O)N(C)C`
A) inactive

Q) What is the recorded call for this compound in the test? `C=CC[C@H]1[C@H](O[Si](C)(C)C(C)(C)C)C=CC(=O)[C@@H]1CC(=O)N(Cc1ccccc1)Cc1ccccc1`
A) inactive

Q) What is the recorded call for this compound in the test? `O=C(Nc1nc2ccc([N+](=O)[O-])cc2[n+]([O-])n1)C(F)(F)F`
A) inactive

Q) What is the recorded call for this compound in the test? `COc1c2cc([N+](=O)[O-])cc1CNC(=O)CN1CCOCCOCCN(CCOCCOCC1)CC(=O)NC2`
A) inactive

Q) What is the recorded call for this compound in the test? `CC1(C)CC(=O)C(CC2C(=O)CCCC2=O)C(=O)C1`
A) inactive

Q) What is the recorded call for this compound in the test? Nc1nc(Cl)cc(NCC2(CO)CC(CCc3ccccc3)C2)n1 (centres undefined)
A) inactive

Q) What is the recorded call for this compound in the test? `COCOc1ccc(Cn2c(=O)n(C)c(=O)c3c2ncn3C)cc1[N+](=O)[O-]`
A) inactive

Q) What is the recorded call for this compound in the test? `C=CCc1c(O)c2nsnc2c2nsnc12`
A) inactive

Q) What is the recorded call for this compound in the test? `COc1ccnc2c1C(=O)c1nc3ccccc3c3ccnc-2c13`
A) active

Q) What is the recorded call for this compound in the test? `Cc1c2ccncc2c(C)c2c1[nH]c1ccc(OC(C)C)cc12`
A) active

Q) What is the recorded call for this compound in the test? `CC(C)Oc1cc2c(cc1O)CC[C@@H]1[C@@H]2CC[C@]2(C)[C@@H](O)CC[C@@H]12`
A) inactive

Q) What is the recorded call for this compound in the test? `N#Cc1nc(Sc2cnsn2)c(Sc2cnsn2)nc1C#N`
A) inactive

Q) What is the recorded call for this compound in the test? C#Cc1cccc(Nc2ncnc3cc(OCCOC)c(OCCOC)cc23)c1 [ERLOTINIB HYDROCHLORIDE]
A) active

Q) What is the recorded call for this compound in the test? `NCC#CCNCCCN1CC1`
A) inactive

Q) What is the recorded call for this compound in the test? `CNC1=CC(=O)C2=C(C1=O)[C@H]1CC[C@]3(C)C(=O)CC[C@H]3[C@@H]1CC2`
A) inactive

Q) What is the recorded call for this compound in the test? `O=c1[nH]c(=S)c2cc3c(=S)[nH]c(=O)n(CCC(c4ccccc4)(c4ccccc4)c4ccccc4)c3nc2n1CCC(c1ccccc1)(c1ccccc1)c1ccccc1`
A) inactive

Q) What is the recorded call for this compound in the test? `Cc1c(/C=N/NC(=O)c2ccccc2O)c(=O)n(-c2ccccc2)n1C`
A) inactive

Q) What is the recorded call for this compound in the test? CCOC(=O)CCC1(C(=O)OCC)CCCC1=O (centres undefined)
A) inactive

Attribution: ChEMBL document CHEMBL1201862
